Molecular target: GlcNAc(b1-3)Man
Test: glycan array binding signal (z-score within array); higher = stronger binding
Conditions: glycan notation: IUPAC condensed, linker removed
This excerpt belongs to a sample that is enriched for the strongest signals.
For each entry below, report its glycan array binding signal (z-score) value.
Give only the figure.

Query block: Query: glycan array binding signal (z-score); subject: PfulAvr4 2 (Pseudocercospora fuligena) (protein) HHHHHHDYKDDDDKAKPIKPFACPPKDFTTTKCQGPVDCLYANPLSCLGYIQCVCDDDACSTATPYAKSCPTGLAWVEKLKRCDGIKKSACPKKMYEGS
Result block: 4.99

Query block: // same read-out, input: Als3-41 (Candida albicans) (protein) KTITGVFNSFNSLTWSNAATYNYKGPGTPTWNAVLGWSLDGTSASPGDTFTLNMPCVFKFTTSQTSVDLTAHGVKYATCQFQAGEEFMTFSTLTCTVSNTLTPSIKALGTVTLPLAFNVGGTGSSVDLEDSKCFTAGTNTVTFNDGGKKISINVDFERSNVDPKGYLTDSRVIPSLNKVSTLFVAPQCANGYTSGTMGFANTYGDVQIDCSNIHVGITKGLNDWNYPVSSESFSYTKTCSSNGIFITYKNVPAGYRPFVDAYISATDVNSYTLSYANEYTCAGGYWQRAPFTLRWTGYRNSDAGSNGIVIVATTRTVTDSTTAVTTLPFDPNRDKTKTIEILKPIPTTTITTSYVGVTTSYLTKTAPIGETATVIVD
Result block: 0.501

Query block: // same read-out, input: PfulAvr4 (Pseudocercospora fuligena) (protein) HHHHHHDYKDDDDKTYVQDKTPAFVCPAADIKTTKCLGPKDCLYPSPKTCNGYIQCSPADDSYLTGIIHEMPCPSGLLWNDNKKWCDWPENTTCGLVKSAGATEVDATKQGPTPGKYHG
Result block: 0.804

Query block: // same read-out, input: PNGase F (Flavobacterium meningosepticum) (protein) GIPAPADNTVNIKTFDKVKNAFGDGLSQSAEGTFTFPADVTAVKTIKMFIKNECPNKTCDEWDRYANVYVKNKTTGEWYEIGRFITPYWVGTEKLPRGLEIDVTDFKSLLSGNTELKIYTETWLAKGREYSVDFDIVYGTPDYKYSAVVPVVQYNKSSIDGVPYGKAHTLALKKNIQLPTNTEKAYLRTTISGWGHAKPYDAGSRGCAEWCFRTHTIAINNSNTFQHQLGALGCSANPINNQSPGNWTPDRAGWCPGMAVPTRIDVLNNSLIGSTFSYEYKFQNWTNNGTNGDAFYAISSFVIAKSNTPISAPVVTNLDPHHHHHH
Result block: 3.03

Query block: // same read-out, input: SAG3 (Toxoplasma gondii), Q9BJ39 (protein) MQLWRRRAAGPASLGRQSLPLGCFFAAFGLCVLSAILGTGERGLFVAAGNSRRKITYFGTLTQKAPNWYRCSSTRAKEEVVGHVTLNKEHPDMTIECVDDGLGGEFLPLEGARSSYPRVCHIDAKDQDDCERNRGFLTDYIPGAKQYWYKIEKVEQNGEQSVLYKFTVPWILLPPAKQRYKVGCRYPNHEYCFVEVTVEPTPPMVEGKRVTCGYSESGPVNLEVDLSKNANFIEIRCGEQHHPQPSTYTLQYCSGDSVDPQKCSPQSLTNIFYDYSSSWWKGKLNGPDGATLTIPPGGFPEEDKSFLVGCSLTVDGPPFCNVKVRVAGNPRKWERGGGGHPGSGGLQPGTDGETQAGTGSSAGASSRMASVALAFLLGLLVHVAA
Result block: 0.13
